measured-on: GDP-bound KRAS wild-type protein (Homo sapiens, UniProt P01116)
Sequence (P01116 whole entry): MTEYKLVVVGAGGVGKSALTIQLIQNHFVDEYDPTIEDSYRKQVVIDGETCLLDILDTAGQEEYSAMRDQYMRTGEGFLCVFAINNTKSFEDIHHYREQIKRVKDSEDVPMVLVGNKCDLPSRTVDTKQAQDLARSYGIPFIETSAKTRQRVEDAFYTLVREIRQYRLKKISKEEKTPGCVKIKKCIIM
assay-procedure: Binding to KRAS by surface plasmon resonance (SPR), Single Cycle Kinetics
particulars: SPR, Single Cycle Kinetics, GDP-bound KRAS wild-type protein; read-out: KRAS KD
Measured Kd, listed per entry.
readout-name: Kd (nM)

molecule	reported
CCO[C@@H]1C[C@H]2C(=O)NC3(CCC3)C(=O)N(C)[C@@H](C3CCCC3)C(=O)N(C)[C@H](C(=O)N3CCOCC3)CC(=O)N(C)[C@@H](Cc3cccc(C)c3)C(=O)N[C@@H]([C@@H](C)CC)C(=O)N(C)CC(=O)N(C)[C@H]3CCCCCN(C3=O)[C@@H](Cc3ccc(C(F)(F)F)cc3)C(=O)N(C)CC(=O)N[C@@H](CCc3cc(F)c(C(F)(F)F)c(F)c3)C(=O)N2C1 [PP0932]	2.9
CCCOC[C@H]1C(=O)N[C@@H]([C@@H](C)CC)C(=O)N(C)CC(=O)N(C)[C@H]2C/C=C\CCN(C2=O)[C@@H](Cc2ccc(C)cc2)C(=O)N(C)CC(=O)N[C@@H](CCc2ccc(C(F)(F)F)c(Cl)c2)C(=O)N2C[C@H](OCC)C[C@H]2C(=O)NC2(CC(C)(C)C2)C(=O)N(C)[C@@H](C2CCCC2)C(=O)N(C)[C@H](C(=O)N(C)CC)CC(=O)N1C [PP2469]	0.19
CCCN(C)C(=O)[C@@H]1CC(=O)N(C)[C@@H](CCOC)C(=O)N[C@@H]([C@@H](C)CC)C(=O)N(C)CC(=O)N(C)[C@H]2C/C=C\CCN(C2=O)[C@@H](Cc2ccc(C(F)(F)F)cc2)C(=O)N(C)CC(=O)N[C@@H](CCc2ccc(C(F)(F)F)c(OC)c2)C(=O)N2C[C@H](OCC)C[C@H]2C(=O)NC2(CC(C)(C)C2)C(=O)N(C)[C@@H](C2CCCC2)C(=O)N1C [PP1975]	0.11

###

measured-on: GDP-bound KRAS wild-type protein (Homo sapiens)
assay-procedure: Binding to KRAS by surface plasmon resonance (SPR), Single Cycle Kinetics
particulars: SPR Single Cycle Kinetics, GDP-bound KRAS wild-type protein, 1:1 binding model; read-out: KRAS KD
pKd: −log10 of the molar value. *1 amine or outer side, *2 acyl side, *3 side chain or, on linkers, in order; H or OH if unused. Where a SMILES comes first, the peptide text is derived from it. Bridges are numbered along the chain shown (N, C = ends). [ ]: non-standard residue; d: D form. The star is where a group is joined. hPhe(3,5-F2-4-CF3) = N[C@@H](CCc1cc(F)c(C(F)(F)F)c(F)c1)C(=O)O; hPhe(3-Cl-4-CF3) = N[C@@H](CCc1ccc(C(F)(F)F)c(Cl)c1)C(=O)O; NPrPhe(4-CF3) = CCCN[C@@H](Cc1ccc(C(F)(F)F)cc1)C(=O)O; X13 = O=C([C@@H](N[*:1])C1CC(F)(F)C1)[*:2]; NMeGly(cPent) = CN[C@H](C(=O)O)C1CCCC1; Pro(4,4-F2) = O=C(O)[C@@H]1CC(F)(F)CN1; Hyp = O=C(O)[C@@H]1C[C@@H](O)CN1; NMeD = CN[C@@H](CC(=O)O)C(=O)O; NMeL = CN[C@@H](CC(C)C)C(=O)O; Morpholide = C1CN(*)CCO1; Ac5c = NC1(C(=O)O)CCCC1; Aze = O=C(O)[C@@H]1CCN1; Sar = CNCC(=O)O

compound	pKd
CCCOC[C@H]1C(=O)N[C@@H]([C@@H](C)CC)C(=O)N(C)CC(=O)N(C)[C@H]2C/C=C\CCN(C2=O)[C@@H](Cc2ccc(C)cc2)C(=O)N(C)CC(=O)N[C@@H](CCc2cc(F)c(C(F)(F)F)c(F)c2)C(=O)N2C[C@H](OCC)C[C@H]2C(=O)NC2(CC(C)(C)C2)C(=O)N(C)[C@@H](CC(C)(C)C)C(=O)N(C)[C@H](C(=O)N(C)C)CC(=O)N1C	10.14
CCO[C@@H]1C[C@H]2C(=O)NC3(CCC3)C(=O)N(C)[C@@H](C3CCCC3)C(=O)N(C)[C@H](C(=O)N3CCOCC3)CC(=O)N(C)[C@@H](COC)C(=O)N[C@@H]([C@@H](C)CC)C(=O)N(C)CC(=O)N(C)[C@H]3CCCCCN(C3=O)[C@@H](Cc3ccc(C(F)(F)F)cc3)C(=O)N(C)CC(=O)N[C@@H](CCc3cc(F)c(C(F)(F)F)c(F)c3)C(=O)N2C1	9.52
CCCN1C(=O)CN(C)C(=O)[C@@H]2CCN2C(=O)[C@H](C2CC(F)(F)C2)NC(=O)[C@H](CC(C)C)N(C)C(=O)C[C@@H](C(=O)N2CCOCC2)N(C)C(=O)[C@H](C2CCCC2)N(C)C(=O)C2(CCCC2)NC(=O)[C@@H]2CCCN2C(=O)[C@H](CCc2cc(F)c(C(F)(F)F)c(F)c2)NC(=O)CN(C)C(=O)[C@@H]1Cc1ccc(C(F)(F)F)cc1 [PP0786] ([NMeL][X13][Aze][Sar][NPrPhe(4-CF3)][Sar][hPhe(3,5-F2-4-CF3)]P[Ac5c][NMeGly(cPent)][NMeD]-Morpholide; lactam N-11)	9.22
CC[C@H](C)[C@@H]1NC(=O)[C@H](CC(C)C)N(C)C(=O)C[C@@H](C(=O)N2CCOCC2)N(C)C(=O)[C@H](C2CCCC2)N(C)C(=O)C2(CC2)NC(=O)[C@@H]2CCCN2C(=O)[C@H](CCc2cc(F)c(C(F)(F)F)c(F)c2)NC(=O)CN(C)C(=O)[C@H](Cc2ccc(C(F)(F)F)cc2)N2CCCCC[C@@H](C2=O)N(C)C(=O)CN(C)C1=O	8.32
CCO[C@@H]1C[C@H]2C(=O)NC3(CC(C)(C)C3)C(=O)N(C)[C@@H](CC(C)(C)C)C(=O)N(C)[C@H](C(=O)N(C)C)CC(=O)N(C)[C@@H](C(C)C)C(=O)N[C@@H]([C@@H](C)CC)C(=O)N(C)CC(=O)N(C)[C@H]3C/C=C\CCN(C3=O)[C@@H](Cc3ccc(C(F)(F)F)cc3)C(=O)N(C)CC(=O)N[C@@H](CCc3ccc(C(F)(F)F)c(OC)c3)C(=O)N2C1	9.28
CCCN1C(=O)[C@@H]2CCN2C(=O)CN(C)C(=O)[C@H]([C@@H](C)CC)NC(=O)[C@H](CC(C)C)N(C)C(=O)C[C@@H](C(=O)N(C)C)NC(=O)[C@H](C2CCCC2)N(C)C(=O)C2(CCCC2)NC(=O)[C@@H]2C[C@@H](OCC)CN2C(=O)[C@H](CCc2ccc(C(F)(F)F)c(Cl)c2)NC(=O)CN(C)C(=O)[C@@H]1Cc1ccc(C(F)(F)F)cc1 [PP0389] ([NMeL]I[Sar][Aze][NPrPhe(4-CF3)][Sar][hPhe(3-Cl-4-CF3)][Hyp](Et)[Ac5c][NMeGly(cPent)]D-NMe2; lactam N-11)	9.80
CCC[C@H]1C(=O)N[C@@H]([C@@H](C)CC)C(=O)N(C)CC(=O)N(C)[C@H]2C/C=C\CCN(C2=O)[C@@H](Cc2ccc(C(F)(F)F)cc2)C(=O)N(C)CC(=O)N[C@@H](CCc2ccc3ccn(C)c3c2)C(=O)N2C[C@H](OCC)C[C@H]2C(=O)NC2(CC(C)(C)C2)C(=O)N(C)[C@@H](C(CC)CC)C(=O)N(C)[C@H](C(=O)N(C)C)CC(=O)N1C	8.06
CCO[C@@H]1C[C@H]2C(=O)NC3(CC(C)(C)C3)C(=O)N(C)[C@@H](C3CCCCC3)C(=O)N(C)[C@H](C(=O)N(C)C)CC(=O)N(C)[C@@H](COC)C(=O)N[C@@H]([C@@H](C)CC)C(=O)N(C)CC(=O)N(C)[C@H]3C/C=C\CCN(C3=O)[C@@H](Cc3ccc(C(F)(F)F)cc3)C(=O)N(C)CC(=O)N[C@@H](CCc3ccc(Cl)c(Cl)c3)C(=O)N2C1	9.57
CC[C@H](C)[C@@H]1NC(=O)[C@H](CC(C)C)N(C)C(=O)C[C@@H](C(=O)N2CCOCC2)N(C)C(=O)[C@H](C2CCCC2)N(C)C(=O)C2(CCCC2)NC(=O)[C@@H]2CCCN2C(=O)[C@H](CCc2ccc(C(F)(F)F)c(Cl)c2)NC(=O)CN(C)C(=O)[C@H](Cc2ccc(C(F)(F)F)cc2)N2CC/C=C\C[C@@H](C2=O)N(C)C(=O)CN(C)C1=O	9.27
CCCN1C(=O)CN(C)C(=O)CNC(=O)[C@H]([C@@H](C)CC)NC(=O)[C@H](CC(C)C)N(C)C(=O)C[C@@H](C(=O)N(C)C)N(C)C(=O)[C@H](C2CCCC2)N(C)C(=O)C2(CCCC2)NC(=O)[C@@H]2CC(F)(F)CN2C(=O)[C@H](CCc2ccc(C(F)(F)F)c(Cl)c2)NC(=O)CN(C)C(=O)[C@@H]1Cc1ccc(C(F)(F)F)cc1 [PP0419] ([NMeL]IG[Sar][NPrPhe(4-CF3)][Sar][hPhe(3-Cl-4-CF3)][Pro(4,4-F2)][Ac5c][NMeGly(cPent)][NMeD]-NMe2; lactam N-11)	10.17

// provenance: patent US20240158446A1
